Reported IC50 values for the following compounds.
# system name: Plasmin (Homo sapiens)
# test name: Anti-plasmin activity (hydrolysis of TAME)
# Assay type: biochemical
# test settings: molar concentration inhibiting 50% of TAME hydrolysis; read-out: id50, Plasmin
# unit: µM | format: bare number

N=C(N)C=Cc1ccc(OC(=O)c2ccccc2)cc1 [Compound 12, 4-(β-amidinoethenyl)-phenyl benzoate]; 2
N=C(N)C=Cc1ccc(OC(=O)CCCCCNC(=O)OCc2ccccc2)cc1 [Compound 7]; 5

Form field IC50, entry CC=CC=CC(=O)Oc1ccc(C=CC(=N)N)cc1 [Compound 4] : 0.9

----------
# System: complement
# test name: Inhibition of complement mediated hemolysis
# Format: cell-based
# test settings: read-out: Inhibition of complement mediated hemolysis (%)
# cutoff 50% applies to inhibition at 10 µM; >= gives yes (1), < gives no (0)

Take a look at these entries with their results.
N=C(N)C=Cc1ccc(OC(=O)c2ccc(NC(=N)N)cc2)cc1; yes (1)
CCC(=Cc1ccc(NC(=N)N)cc1)C(=O)Oc1ccc(C=CC(=N)N)cc1; no (0)
CC(=O)N[C@@H](CC(C)C)C(=O)N[C@@H](CC(C)C)C(=O)N[C@H](C=O)CCCNC(=N)N [Leupeptin, reference compound]; yes (1)
N=C(N)C=Cc1ccc(OC(=O)CCCCCN)cc1; no (0)

Here's the next entry for you.
Incoming: Determine whether measured inhibition at 10 µM meets or exceeds 50% for N=C(N)C=Cc1ccc(OC(=O)c2ccc(CNC(=O)OCc3ccccc3)cc2)cc1
Outgoing: yes (1)

----------
# test name: Toxicity, median lethal dose (LD50)
# test settings: in vivo, ip
measured quantity: LD50 (mg/kg)
# unit: mg/kg | format: bare number

N=C(N)C=Cc1ccc(OC(=O)c2ccc(NC(=N)N)cc2)cc1; 133

Moving on to another compound below.
Form field LD50, entry N=C(N)C=Cc1ccc(OC(=O)c2ccc(CN)cc2)cc1 : 200

----------
# System: complement
# test name: Inhibition of complement mediated hemolysis
# Format: cell-based
# test settings: read-out: Inhibition of complement mediated hemolysis (%)
measured quantity: inhibition at 100 µM (%)
# unit: % | format: bare number

Example molecules with recorded inhibition at 100 µM:
CC=CC=CC(=O)Oc1ccc(C=CC(=N)N)cc1 [Compound 4]; 100
CC(=O)N[C@@H](CC(C)C)C(=O)N[C@@H](CC(C)C)C(=O)N[C@H](C=O)CCCNC(=N)N [Leupeptin, reference compound]; 97

Response field inhibition at 100 µM (complement) for item CC(=O)Oc1ccc(C=CC(=N)N)cc1 [Compound 1, 4-(β-amidinoethenyl)phenyl acetate] : 99

----------
# test name: Toxicity, median lethal dose (LD50)
# test settings: in vivo, po
measured quantity: LD50
Kindly format the answer as number then unit.

N=C(N)C=Cc1ccc(OC(=O)c2ccc(CN)cc2)cc1; 2500 mg/kg

Form field LD50, entry N=C(N)C=Cc1ccc(OC(=O)c2ccc(NC(=N)N)cc2)cc1 : 1200 mg/kg

----------
# system name: Plasmin (Homo sapiens, UniProt P00747)
# Sequence (P00747 581-810 limits assumed): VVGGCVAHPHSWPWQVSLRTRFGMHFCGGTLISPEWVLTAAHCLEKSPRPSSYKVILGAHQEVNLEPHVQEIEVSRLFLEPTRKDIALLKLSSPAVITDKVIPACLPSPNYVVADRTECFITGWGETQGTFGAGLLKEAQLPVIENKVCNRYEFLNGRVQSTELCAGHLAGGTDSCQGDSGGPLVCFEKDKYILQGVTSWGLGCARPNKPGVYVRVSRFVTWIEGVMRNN
# Sequence (P00747 97-580 partner limits assumed): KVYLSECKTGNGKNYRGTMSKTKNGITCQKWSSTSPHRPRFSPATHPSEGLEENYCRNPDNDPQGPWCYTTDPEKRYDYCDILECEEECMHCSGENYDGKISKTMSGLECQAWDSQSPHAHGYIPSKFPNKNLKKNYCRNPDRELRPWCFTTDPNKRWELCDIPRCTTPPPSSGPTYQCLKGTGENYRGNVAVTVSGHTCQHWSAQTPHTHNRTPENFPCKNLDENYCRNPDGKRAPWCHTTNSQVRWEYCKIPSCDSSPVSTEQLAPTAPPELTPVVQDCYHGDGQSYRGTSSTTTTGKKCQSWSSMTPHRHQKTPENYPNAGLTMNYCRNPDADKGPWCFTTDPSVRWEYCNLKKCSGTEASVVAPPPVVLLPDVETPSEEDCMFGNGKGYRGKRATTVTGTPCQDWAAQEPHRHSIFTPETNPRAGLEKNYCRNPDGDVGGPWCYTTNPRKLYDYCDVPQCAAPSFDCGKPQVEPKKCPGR
# test name: Anti-plasmin activity (hydrolysis of TAME)
# Assay type: biochemical
# test settings: molar concentration inhibiting 50% of TAME hydrolysis; read-out: id50, Plasmin
Reported IC50 values for the following compounds.
# unit: µM | format: bare number

Example compounds with recorded IC50:
N=C(N)C=Cc1ccc(OC(=O)c2ccc(Cl)cc2)cc1; 4
CC(C)Cc1ccc(C(C)C(=O)Oc2ccc(C=CC(=N)N)cc2)cc1 (stereo not shown); 8
N=C(N)C=Cc1ccc(OC(=O)C2CC2)cc1; 2

Form field IC50, entry N=C(N)C=Cc1ccc(OC(=O)[C@H]2CC[C@H](CNC(=O)OCc3ccccc3)CC2)cc1 : 0.3
